A collection of compounds and their measured pIC50
test target: Tubulin (Sus scrofa, UniProt P02550+P02554)
Sequence (P02554 whole entry): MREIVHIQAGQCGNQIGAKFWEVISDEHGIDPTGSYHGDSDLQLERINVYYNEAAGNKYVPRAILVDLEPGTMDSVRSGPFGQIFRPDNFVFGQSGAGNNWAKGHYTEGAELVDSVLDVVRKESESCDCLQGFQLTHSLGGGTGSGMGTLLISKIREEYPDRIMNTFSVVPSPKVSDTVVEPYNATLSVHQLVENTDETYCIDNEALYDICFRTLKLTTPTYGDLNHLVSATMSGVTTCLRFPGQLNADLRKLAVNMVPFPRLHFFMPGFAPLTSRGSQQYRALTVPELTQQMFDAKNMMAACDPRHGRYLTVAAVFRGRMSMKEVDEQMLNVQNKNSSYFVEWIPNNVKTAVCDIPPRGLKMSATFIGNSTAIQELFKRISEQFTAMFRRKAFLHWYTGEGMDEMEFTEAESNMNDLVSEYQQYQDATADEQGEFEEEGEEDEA
Sequence (P02550 whole entry): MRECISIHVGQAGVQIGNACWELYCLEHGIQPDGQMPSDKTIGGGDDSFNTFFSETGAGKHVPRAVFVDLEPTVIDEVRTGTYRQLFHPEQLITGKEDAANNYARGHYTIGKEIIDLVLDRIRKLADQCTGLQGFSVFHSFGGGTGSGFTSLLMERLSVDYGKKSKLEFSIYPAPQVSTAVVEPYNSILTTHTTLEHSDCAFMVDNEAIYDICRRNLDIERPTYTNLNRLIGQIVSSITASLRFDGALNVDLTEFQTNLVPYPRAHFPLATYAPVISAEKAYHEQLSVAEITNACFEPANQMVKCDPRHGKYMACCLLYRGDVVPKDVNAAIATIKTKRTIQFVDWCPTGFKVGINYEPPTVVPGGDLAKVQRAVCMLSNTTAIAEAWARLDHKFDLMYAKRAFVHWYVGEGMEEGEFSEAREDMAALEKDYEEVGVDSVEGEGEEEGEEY
protocol: Inhibition of tubulin polymerization (turbidimetry)
setup conditions: tubulin 10 μM, 37° C., turbidity at 350 nm
Schema: pIC50 number; meaning minus log10 of the concentration expressed in molar units.

[[record]]
compound = "COc1ccc(C2CC2C(=O)c2cc(OC)c(OC)c(OC)c2)cc1O (racemic) [Example 1]"
measurement_name = "pIC50"
assay_value = 6.00

[[record]]
compound = "COc1cc(C(=O)C2CC2c2ccc(N(C)C)cc2)cc(OC)c1OC (racemic) [Example 2]"
measurement_name = "pIC50"
assay_value = 5.60


# pIC50 (compound: COc1ccc(C2C3C=CC(C3)C2C(=O)c2cc(OC)c(OC)c(OC)c2)cc1O (racemic) [Example 3] ) is 5.35
